system: Mycobacterium tuberculosis; test: Antimycobacterial activity against multidrug resistant Mycobacterium tuberculosis Praha 4 after 21 days by micromethod; type: functional; conditions: Praha 4, 504 h
Recorded MIC for the following compounds
PARAMETER_MEASURED: MIC (µM)

>>> experimental_result("O=C(Nc1ccc(C(F)(F)F)cc1)c1cc(Br)c(Br)cc1O")
2
>>> experimental_result("O=C(Nc1ccc(C(F)(F)F)cc1)c1ccc(Br)cc1O")
2
>>> experimental_result("O=C(Nc1ccc(C(F)(F)F)cc1)c1cc(Br)ccc1O")
4
>>> experimental_result("O=C(Nc1ccc(C(F)(F)F)cc1)c1cc(Cl)c(Cl)cc1O")
2
>>> experimental_result("O=C(Nc1ccc(C(F)(F)F)cc1)c1cc(Cl)c(Br)cc1O")
4
>>> experimental_result("O=C(Nc1ccc(C(F)(F)F)cc1)c1cc(Br)c(Cl)cc1O")
2
>>> experimental_result("O=C(Nc1ccc(C(F)(F)F)cc1)c1ccc(Cl)cc1O")
2
>>> experimental_result("NNC(=O)c1ccncc1 [ISONIAZID]")
16
>>> experimental_result("O=C(Nc1ccc(C(F)(F)F)cc1)c1cc(Cl)ccc1O")
0.5

* * *

tested on: Mycobacterium tuberculosis; assay: Antimycobacterial activity against multidrug resistant Mycobacterium tuberculosis 234/2005 after 21 days by micromethod; type: functional; conditions: 234/2005, 504 h
PARAMETER_MEASURED: MIC (µM)

>>> experimental_result("O=C(Nc1ccc(C(F)(F)F)cc1)c1cc(Cl)c(Cl)cc1O")
2
>>> experimental_result("O=C(Nc1ccc(C(F)(F)F)cc1)c1cc(Cl)c(Br)cc1O")
2
>>> experimental_result("O=C(Nc1ccc(C(F)(F)F)cc1)c1cc(Br)c(Cl)cc1O")
2
>>> experimental_result("O=C(Nc1ccc(C(F)(F)F)cc1)c1cc(Br)c(Br)cc1O")
2
>>> experimental_result("NNC(=O)c1ccncc1")
32
>>> experimental_result("O=C(Nc1ccc(C(F)(F)F)cc1)c1ccc(Br)cc1O")
2
>>> experimental_result("O=C(Nc1ccc(C(F)(F)F)cc1)c1cc(Br)ccc1O")
4
>>> experimental_result("O=C(Nc1ccc(C(F)(F)F)cc1)c1ccc(Cl)cc1O")
2
>>> experimental_result("O=C(Nc1ccc(C(F)(F)F)cc1)c1cc(Cl)ccc1O")
0.5

* * *

Recorded MIC for the following molecules
tested on: Mycobacterium tuberculosis; assay: Antimycobacterial activity against multidrug resistant Mycobacterium tuberculosis 234/2005 after 14 days by micromethod; assay type: functional; conditions: 234/2005, 336 h
PARAMETER_MEASURED: MIC (µM)

>>> experimental_result("O=C(Nc1ccc(C(F)(F)F)cc1)c1ccc(Cl)cc1O")
2
>>> experimental_result("O=C(Nc1ccc(C(F)(F)F)cc1)c1cc(Cl)c(Cl)cc1O")
1
>>> experimental_result("O=C(Nc1ccc(C(F)(F)F)cc1)c1cc(Cl)c(Br)cc1O")
2
>>> experimental_result("NNC(=O)c1ccncc1")
16
>>> experimental_result("O=C(Nc1ccc(C(F)(F)F)cc1)c1cc(Cl)ccc1O")
0.5
>>> experimental_result("O=C(Nc1ccc(C(F)(F)F)cc1)c1cc(Br)c(Cl)cc1O")
2
>>> experimental_result("O=C(Nc1ccc(C(F)(F)F)cc1)c1ccc(Br)cc1O")
1
>>> experimental_result("O=C(Nc1ccc(C(F)(F)F)cc1)c1cc(Br)ccc1O")
2
>>> experimental_result("O=C(Nc1ccc(C(F)(F)F)cc1)c1cc(Br)c(Br)cc1O")
2
